- target: c-Met (cytoplasmic domain) (Homo sapiens, UniProt P08581)
- Construct: 10 ng/mL c-Met (cytoplasmic domain, Invitrogen Corporation #PV3143); purchased Invitrogen Corporation PV3143
- Sequence (P08581 956-1390 limits assumed): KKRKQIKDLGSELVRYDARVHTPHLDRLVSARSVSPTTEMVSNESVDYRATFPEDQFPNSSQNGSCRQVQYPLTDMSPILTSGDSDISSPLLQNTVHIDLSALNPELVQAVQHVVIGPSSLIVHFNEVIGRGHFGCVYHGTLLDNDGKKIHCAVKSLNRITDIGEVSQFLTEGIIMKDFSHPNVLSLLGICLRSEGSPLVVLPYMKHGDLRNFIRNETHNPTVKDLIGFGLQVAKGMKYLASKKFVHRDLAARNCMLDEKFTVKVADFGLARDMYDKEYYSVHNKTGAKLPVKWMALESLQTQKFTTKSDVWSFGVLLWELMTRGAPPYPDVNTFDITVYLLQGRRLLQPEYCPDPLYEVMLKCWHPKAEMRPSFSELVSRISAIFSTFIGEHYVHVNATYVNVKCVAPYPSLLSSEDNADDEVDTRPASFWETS
- measurement_notes: c-Met Kinase Assay (same methods as for ALK, with modifications)
- Type: biochemical
- assay_context: c-Met kinase inhibition, 1 μM ATP (Km level); read-out: cMet Activity
compounds and their reported IC50

Examples with their reported IC50 follow.
>>> print(df.to_string())
                                   compound  endpoint_name   endpoint_result
0  COCCN1CCc2ccc(Nc3ncc(Cl)c(N[C@@H]4CCCC[C@H]4NS(C)(=O)=O)n3)cc2CC1 [Example 36]           IC50  1000 to 10000 nM
1  CNS(=O)(=O)c1ccccc1Nc1nc(Nc2ccc3c(c2)CCN(CCOC)CC3)ncc1Cl [Example 35]           IC50    100 to 1000 nM
2  COCCN1CCc2ccc(Nc3ncc(Cl)c(Nc4ccccc4C(=O)NC(C)C)n3)cc2CC1 [Example 342]           IC50    100 to 1000 nM
3  CNC(=O)c1cccc(F)c1Nc1nc(Nc2ccc3c(c2)CCN(C[C@@H](O)C(F)(F)F)CC3)ncc1Cl [Example 332]           IC50          < 100 nM
4  CNC(=O)c1ccccc1Nc1nc(Nc2ccc3c(c2)N(C)CCNC3=O)ncc1Cl [Example 414]           IC50          < 100 nM
5  CNC(=O)c1ccccc1Nc1nc(Nc2ccc3c(c2)CCN(C[C@H](O)C(F)(F)F)CC3)ncc1Cl [Example 328]           IC50          < 100 nM
6  CNC(=O)c1ccccc1Nc1nc(Nc2cc3c(cc2OC)C(=O)N(C)CCC3)ncc1Cl [Example 107]           IC50    100 to 1000 nM
7  CCN1CCc2ccc(Nc3ncc(F)c(Nc4ccccc4C(=O)NC)n3)cc2CC1 [Example 196]           IC50          < 100 nM

[Q] Give its IC50 value. Item: CNS(=O)(=O)c1ccccc1Nc1nc(Nc2ccc3c(c2)C2CC3CN(S(C)(=O)=O)C2)ncc1Cl (stereo not drawn) [Example 163]
[A] 1000 to 10000 nM

[Q] Another compound to check: CCN1CCN(CC)c2cc(Nc3ncc(Cl)c(Nc4ccccc4NS(C)(=O)=O)n3)ccc2C1 [Example 425]
[A] 100 to 1000 nM

[Q] Another compound to check: CNC(=O)c1sccc1Nc1nc(Nc2ccc3c(c2)N(C(C)=O)CC(=O)NC3)ncc1Cl [Example 1878]
[A] < 100 nM

[Q] Another compound to check: CCN1CCc2ccc(Nc3ncc(Cl)c(N[C@@H]4CCCC[C@H]4O)n3)cc2CC1 (relative stereo) [Example 319]
[A] > 10000 nM

[Q] Another compound to check: CNS(=O)(=O)c1ccccc1Nc1nc(Nc2ccc3c(c2)C2CCC3CNC2)ncc1Cl (stereo not drawn) [Example 285]
[A] < 100 nM

[Q] Another compound to check: CS(=O)(=O)N[C@@H]1CCCC[C@H]1Nc1nc(Nc2ccc3c(c2)CCC(=O)CC3)ncc1Cl [Example 174]
[A] 100 to 1000 nM

[Q] Another compound to check: COCCN1CCc2ccc(Nc3ncc(Cl)c(N[C@@H]4CCC[C@H]4NS(C)(=O)=O)n3)cc2CC1 (relative stereo) [Example 371]
[A] 1000 to 10000 nM
